- measurement notes: In vitro BBB permeability study (Papp), hCMEC/D3 mono-culture BBB model
- settings: human, Papp(cm/s), Figure 2P; group Mono; individual replicates
property name: Papp A→B at 30 min (×10⁻⁶ cm/s)

[
  {
    "molecule": "O=C1OC2(c3ccc(O)cc3Oc3cc(O)ccc32)c2ccccc21 [fluorescein, fluorescein sodium]",
    "experimental result": 31
  }
]

====

Overview of reported PSPre, Mono across a group of compounds:
- Test system: hCMEC/D3 mono-culture BBB model
- settings: human
property name: PSPre, Mono (µL/min/g)

[
  {
    "compound": "Cc1ncc2n1-c1ccc(Cl)cc1C(c1ccccc1F)=NC2",
    "property name": "PSPre, Mono",
    "units": "µL/min/g",
    "experimental result": 5060.00
  },
  {
    "compound": "NCC1(CC(=O)O)CCCCC1",
    "property name": "PSPre, Mono",
    "units": "µL/min/g",
    "experimental result": 192.77
  },
  {
    "compound": "NC12CC3CC(CC(C3)C1)C2",
    "property name": "PSPre, Mono",
    "units": "µL/min/g",
    "experimental result": 310.22
  },
  {
    "compound": "CC(NC(C)(C)C)C(=O)c1cccc(Cl)c1 (stereo not shown)",
    "property name": "PSPre, Mono",
    "units": "µL/min/g",
    "experimental result": 1139.58
  },
  {
    "compound": "CN1CCN2c3ncccc3Cc3ccccc3C2C1 (stereo not shown)",
    "property name": "PSPre, Mono",
    "units": "µL/min/g",
    "experimental result": 2637.00
  },
  {
    "compound": "CN(C)CCC=C1c2ccccc2COc2ccccc21 [Doxepin]",
    "property name": "PSPre, Mono",
    "units": "µL/min/g",
    "experimental result": 6076.80
  },
  {
    "compound": "NC(=O)N1c2ccccc2C=Cc2ccccc21 [Carbamazepine]",
    "property name": "PSPre, Mono",
    "units": "µL/min/g",
    "experimental result": 2666.89
  },
  {
    "compound": "CCN(CC)CCNC(=O)c1cc(Cl)c(N)cc1OC [Metoclopramide]",
    "property name": "PSPre, Mono",
    "units": "µL/min/g",
    "experimental result": 348.66
  }
]
